Origin of measurements: ChEMBL document CHEMBL1961873

# maps each entry to its inhibition
# Measurement Target: Tyrosine-protein kinase Lyn (Homo sapiens);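 further: mean percent inhibition of the LYN A splice variant of the kinase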
# Run Parameters: at 1 µM
# Description: GSK_PKIS: LYN A (splice variant) mean inhibition at 1 uM [Nanosyn]
Observation Type: inhibition (%)

>>> df
                                   compound  observation_type  unit_text  reported_result
0  CN(C)c1cc2c(Nc3ccc4nc(Cc5ccccc5)[nH]c4c3)ncnc2cn1        inhibition          %             32.1
1  COc1cc(C)c(NC(=O)CN(C)C)cc1Nc1nc(Nc2cccc(F)c2C(N)=O)c2cc[nH]c2n1        inhibition          %             1.33
2  COc1ccc2cc(-c3c(-c4ccncc4)nc(-c4ccc([S+](C)[O-])cc4)n3C)ccc2c1 (stereo not given)        inhibition          %             9.35
3  CC1=C(C(=O)Nc2ccc3[nH]ncc3c2)C(c2ccc3ccccc3c2)CC(=O)N1 (stereo not given)        inhibition          %             30.8
4             COc1ccccc1Nc1ncc(-c2ccccc2)o1        inhibition          %             8.44

----------
# Measurement Target: Glycogen synthase kinase-3 beta (Homo sapiens) (UniProt P49841);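 further: reported values are mean percent inhibition of GSK3B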
# Sequence (P49841 whole entry, looked up): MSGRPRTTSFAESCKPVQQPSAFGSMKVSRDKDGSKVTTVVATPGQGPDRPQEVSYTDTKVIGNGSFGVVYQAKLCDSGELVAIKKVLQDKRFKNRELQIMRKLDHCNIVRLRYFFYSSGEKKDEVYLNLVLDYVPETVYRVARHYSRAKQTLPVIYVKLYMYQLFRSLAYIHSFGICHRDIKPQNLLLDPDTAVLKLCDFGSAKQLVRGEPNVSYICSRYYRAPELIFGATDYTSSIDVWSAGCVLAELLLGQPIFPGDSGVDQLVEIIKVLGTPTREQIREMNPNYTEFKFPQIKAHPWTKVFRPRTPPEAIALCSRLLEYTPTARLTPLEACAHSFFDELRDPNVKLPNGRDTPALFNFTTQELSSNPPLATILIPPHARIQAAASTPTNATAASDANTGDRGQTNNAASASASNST
# Run Parameters: at 1 µM
Observation Type: inhibition

>>> print(df.to_string())
                                   compound  reported_result
0  COc1cc2c(cc1Nc1nc(N3CCc4ccccc43)c3cc[nH]c3n1)N(C(=O)CN(C)C)CC2            0.72%
1               COc1ccc(-c2ccncc2)cc1C(N)=O            4.32%
2  CC1=C(C(=O)Nc2ccc3[nH]ncc3c2)C(c2ccc3ccccc3c2)CC(=O)N1 (stereo not given)            7.81%
3  Cc1nn(C)c2cc(N(C)c3ccnc(Nc4cccc(S(N)(=O)=O)c4)n3)ccc12            5.82%
4  COc1cccc(-n2ncc3c(N/N=C/c4cccc(F)c4)ncnc32)c1            72.7%

----------
# Measurement Target: Aurora kinase A (Homo sapiens) (UniProt O14965);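 further: values are mean percent inhibition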
# Sequence (whole entry): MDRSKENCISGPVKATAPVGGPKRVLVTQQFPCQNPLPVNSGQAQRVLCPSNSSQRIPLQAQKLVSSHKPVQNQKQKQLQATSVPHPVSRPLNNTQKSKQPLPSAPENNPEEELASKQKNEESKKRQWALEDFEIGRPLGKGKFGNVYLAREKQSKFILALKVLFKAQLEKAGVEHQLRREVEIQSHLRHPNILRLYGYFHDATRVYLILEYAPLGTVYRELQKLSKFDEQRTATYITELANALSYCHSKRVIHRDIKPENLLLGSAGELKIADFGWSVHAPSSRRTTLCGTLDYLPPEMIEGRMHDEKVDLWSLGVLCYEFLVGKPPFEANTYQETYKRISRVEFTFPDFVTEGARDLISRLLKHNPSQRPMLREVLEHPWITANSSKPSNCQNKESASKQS
# Run Parameters: at 1 µM
Class boundaries, taken from values of inhibition, are as follows: low = under 9%, mid = from 9% up to 20%, high = 20% and over

In [3]: df
Out[3]:
                                  structure  discrete_label
0  CS(=O)(=O)Nc1ccc(N/C=C2\C(=O)Nc3ccccc32)cc1            high
1   COc1ccc(COc2ccc(Cc3cnc(N)nc3N)cc2OC)cc1             low
2  NC(=O)c1ccc(-c2nc(-c3ccccn3)c(-c3ccc4c(c3)OCO4)[nH]2)cc1             low
3  NS(=O)(=O)c1cccc(-c2ccc3c(NC(=O)C4CC4)n[nH]c3c2)c1             mid
4  O=C1NC(=O)C(N2CCc3ccccc32)=C1c1ccc(Cl)cc1             mid
5  COc1cc2ncn(-c3cc(O[C@@H](C)c4ccccc4Cl)c(C(N)=O)s3)c2cc1OC             mid
6  CCCN1CCC=C(c2ccc(Nc3nc(Nc4ccccc4C(N)=O)c4cc[nH]c4n3)c(C)c2)C1            high
7  COC(=O)Nc1nc2cc(Oc3cccc(NC(=O)Nc4cc(C(F)(F)F)ccc4F)c3)ccc2[nH]1             low
8  Cc1nn(C)c2cc(N(C)c3ccnc(Nc4cccc(S(N)(=O)=O)c4)n3)ccc12            high

----------
# maps each entry to its inhibition
# Measurement Target: PAS domain-containing serine/threonine-protein kinase (Homo sapiens)
# Run Parameters: at 0.1 µM
# Description: GSK_PKIS: PASK mean inhibition at 0.1 uM [Nanosyn]
Observation Type: inhibition (%)

>>> print(df.to_string())
                                    molecule  reported_result
 0  NCc1ccc(-c2nc(-c3ccc(Cl)c(O)c3)c(-c3ccncc3)[nH]2)cc1             0.34
 1  CS(=O)(=O)CCNCc1nc(-c2ccc3ncnc(Nc4ccc(F)c(Cl)c4)c3c2)cs1                1
 2  CCCN1CCC=C(c2ccc(Nc3nc(Nc4ccccc4C(N)=O)c4cc[nH]c4n3)c(C)c2)C1            -1.89
 3  c1cnn2ncc(-c3ccnc(Nc4ccc5c(c4)OCCO5)n3)c2c1            -0.33
 4  NC(=O)c1cccc(Nc2nccc(Nc3cccc4[nH]ncc34)n2)c1             0.03
 5       CCn1c(-c2nonc2N)nc2c(N3CCCC3)nccc21            -0.88
 6               COc1ccc(-c2ccncc2)cc1C(N)=O            -0.78
 7       Cn1cc(C=C2C(=O)Nc3cccnc32)c2ccccc21            -0.07
 8  O=C1NC(=O)C(c2ccc(Cl)cc2)=C1Nc1ccc(Cl)c(C(=O)O)c1            -0.66
 9  Nc1ncnc2occ(-c3ccc(NC(=O)Nc4cccc(C(F)(F)F)c4)cc3)c12            -0.58
10  O=C1NC(=O)C(c2cccc(Cl)c2)=C1Nc1ccc(O)c(Cl)c1             1.02
11     Cc1cccc(-c2n[nH]cc2-c2ccc3ncccc3n2)n1            -0.24
12  CC1=C(C(=O)Nc2ccc3[nH]ncc3c2)C(c2ccc3ccccc3c2)CC(=O)N1 (configuration not stated)             -0.4
13   COc1ccc(COc2ccc(Cc3cnc(N)nc3N)cc2OC)cc1             1.77
14  O=C(Nc1n[nH]c2nc(-c3ccco3)c(Br)cc12)C1CC1             0.09
15                CCn1c(-c2nonc2N)nc2ccncc21             0.79
16  COc1cc(C)c(NC(=O)CN(C)C)cc1Nc1nc(Nc2cccc(F)c2C(N)=O)c2cc[nH]c2n1            -0.35
17  CS(=O)(=O)CCNCc1ccc(-c2ccc3ncnc(Nc4ccc(OCc5cccc(F)c5)c(C(F)(F)F)c4)c3c2)o1            -0.62
18  CN1CCC(C(=O)Nc2n[nH]c3nnc(-c4ccccc4)cc23)CC1             0.17
19  CCn1c(-c2nonc2N)nc2c(C#CC(C)(C)O)nc(CN3CCCC3)cc21             0.49
20  COc1cc2ncn(-c3cc(OCc4ccccc4C(F)(F)F)c(C(N)=O)s3)c2cc1OC            -0.15
21  NC(=O)c1ccc(-c2nc(-c3ccccn3)c(-c3ccc4c(c3)OCO4)[nH]2)cc1             0.34

----------
# maps each entry to its inhibition
# Measurement Target: Macrophage-stimulating protein receptor (Homo sapiens) (UniProt Q04912)
# Sequence (Q04912 25-304 limits assumed): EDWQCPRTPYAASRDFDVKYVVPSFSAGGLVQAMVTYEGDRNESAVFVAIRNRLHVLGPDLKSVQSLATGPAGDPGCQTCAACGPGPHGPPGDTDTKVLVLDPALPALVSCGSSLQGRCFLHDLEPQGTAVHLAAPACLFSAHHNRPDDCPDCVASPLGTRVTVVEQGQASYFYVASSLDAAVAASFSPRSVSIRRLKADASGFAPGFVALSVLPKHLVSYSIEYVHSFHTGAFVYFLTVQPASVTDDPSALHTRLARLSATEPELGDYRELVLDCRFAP
# Sequence (Q04912 310-1400 limits assumed): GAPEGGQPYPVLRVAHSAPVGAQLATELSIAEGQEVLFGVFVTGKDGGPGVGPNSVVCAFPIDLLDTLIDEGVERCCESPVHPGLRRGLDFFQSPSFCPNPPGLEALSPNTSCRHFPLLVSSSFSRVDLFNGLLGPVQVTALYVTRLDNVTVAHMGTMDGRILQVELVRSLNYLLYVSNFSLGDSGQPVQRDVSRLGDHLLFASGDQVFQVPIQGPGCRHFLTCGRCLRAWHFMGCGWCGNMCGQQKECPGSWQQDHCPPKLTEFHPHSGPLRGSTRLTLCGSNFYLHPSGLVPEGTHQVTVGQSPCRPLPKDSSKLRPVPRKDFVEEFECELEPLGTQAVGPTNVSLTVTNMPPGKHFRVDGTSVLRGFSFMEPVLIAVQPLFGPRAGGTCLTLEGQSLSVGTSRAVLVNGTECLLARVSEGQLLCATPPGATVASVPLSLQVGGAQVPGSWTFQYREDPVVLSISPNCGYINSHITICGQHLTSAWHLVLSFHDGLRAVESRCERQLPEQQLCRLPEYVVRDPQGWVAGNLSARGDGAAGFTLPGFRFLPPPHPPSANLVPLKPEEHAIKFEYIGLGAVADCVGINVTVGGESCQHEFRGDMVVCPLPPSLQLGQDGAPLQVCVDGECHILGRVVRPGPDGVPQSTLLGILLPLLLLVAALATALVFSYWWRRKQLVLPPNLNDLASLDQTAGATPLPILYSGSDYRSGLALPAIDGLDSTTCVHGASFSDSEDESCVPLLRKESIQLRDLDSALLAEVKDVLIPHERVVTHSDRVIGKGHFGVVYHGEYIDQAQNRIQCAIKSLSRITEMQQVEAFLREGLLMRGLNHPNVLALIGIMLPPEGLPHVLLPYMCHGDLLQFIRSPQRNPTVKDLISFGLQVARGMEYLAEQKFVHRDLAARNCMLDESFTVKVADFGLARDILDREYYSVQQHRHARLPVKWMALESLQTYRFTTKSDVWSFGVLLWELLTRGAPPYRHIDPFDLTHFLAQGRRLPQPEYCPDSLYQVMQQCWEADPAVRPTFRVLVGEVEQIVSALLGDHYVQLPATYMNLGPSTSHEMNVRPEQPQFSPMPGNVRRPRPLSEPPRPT
# Run Parameters: at 1 µM
# Description: GSK_PKIS: RON mean inhibition at 1 uM [Nanosyn]
Observation Type: inhibition (%)

                                   molecule  reported_result
0  Cc1nn(C)c2cc(N(C)c3ccnc(Nc4cccc(S(N)(=O)=O)c4)n3)ccc12             22.4
1  CCN1CCC(CC(=O)Nc2n[nH]c3nc(-c4cccs4)c(Br)cc23)CC1             6.29
2  COc1cc(C)c(NC(=O)CN(C)C)cc1Nc1nc(Nc2cccc(F)c2C(N)=O)c2cc[nH]c2n1             3.91
3  CCn1c(-c2nonc2N)nc2c(C#CC(C)(C)O)nc(OC[C@@H](N)c3ccccc3)cc21             6.11
4  COc1ccc(-c2nn3ncccc3c2-c2ccnc(Nc3ccc(Cl)c(C(F)(F)F)c3)n2)cc1             2.44
5  COc1cc2ncn(-c3cc(OCc4ccccc4Cl)c(C(N)=O)s3)c2cc1OC             13.3
6  CCc1cccc(NC(=O)Nc2ccc(Oc3ccc4nc(NC(=O)OC)[nH]c4c3)cc2)c1             5.62
7  COC(=O)Nc1nc2cc(Oc3ccc(NC(=O)Nc4cccc(C(=O)O)c4)cc3)ccc2[nH]1             5.64
8  CC1=C(C(=O)Nc2ccc3[nH]ncc3c2)C(c2ccc(Cl)c(Cl)c2)CC(=O)N1 (centres undefined)               15
